Molecular target: T1, CRBN, Q96SW2;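 also: pooled lentiviral library of zinc finger degron-EGFP fusions in mCherry-positive Jurkat cells, FACS-sorted after compound exposure, with degron abundance counted by next-generation sequencing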
T1 chain: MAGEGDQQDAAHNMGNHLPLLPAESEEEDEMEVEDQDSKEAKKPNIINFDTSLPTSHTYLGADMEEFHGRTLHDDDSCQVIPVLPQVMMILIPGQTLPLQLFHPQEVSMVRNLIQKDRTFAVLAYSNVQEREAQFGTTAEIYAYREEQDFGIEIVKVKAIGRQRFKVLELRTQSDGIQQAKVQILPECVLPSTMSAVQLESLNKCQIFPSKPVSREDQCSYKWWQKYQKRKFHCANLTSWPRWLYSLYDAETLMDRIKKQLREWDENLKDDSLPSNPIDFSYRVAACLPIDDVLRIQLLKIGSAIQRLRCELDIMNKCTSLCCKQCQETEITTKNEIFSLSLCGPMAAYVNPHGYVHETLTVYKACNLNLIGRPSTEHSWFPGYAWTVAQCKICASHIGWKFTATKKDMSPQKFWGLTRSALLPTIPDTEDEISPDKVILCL
Experiment: log2 fold change of degron read counts, EGFP-low vs EGFP+ sorted cells (limma voom), compound-induced degradation; higher = more compound-induced degradation of the degron-EGFP fusion; degrons are variants of IKZF1/3 zinc finger 2; compound dose not given here
Details: Jurkat; 18 h; compound: compound 33 (diphenyl IMiD analogue)
Whole data set: some 8,300 sequences, median “log2 fold change of degron read counts, EGFP-low vs EGFP+ sorted cells (limma voom), compound-induced degradation” near -1.1, cut for the highest 2% near 3.2. The full list was thinned out, with the highest values kept by preference.
Param threshold (-0.2) applies to log2 fold change of degron read counts; output TRUE when value >= threshold, FALSE when value < threshold.

{"columns": ["residueCodes", "label"],
 "data": [
  ["FICNVCGAIFTQKGNLLRHIKL [46F_47I_49N_50V_52G_53A_54I_55F_67L_, Q9UKT9]", "TRUE"],
  ["LGCEICGFCCTQKGNLLRHIKL [46L_47G_49E_50I_52G_53F_54C_55C_67L_, Q9UKT9]", "FALSE"],
  ["FRCPICGATFTQKGNLLRHIKL [46F_47R_49P_50I_52G_53A_54T_55F_67L_, Q9UKT9]", "TRUE"],
  ["LVCPICGFNCTQKGNLLRHIKL [46L_47V_49P_50I_52G_53F_54N_55C_67L_, Q9UKT9]", "TRUE"],
  ["LICEICGFVCTQKGNLLRHIKL [46L_47I_49E_50I_52G_53F_54V_55C_67L_, Q9UKT9]", "TRUE"],
  ["LVCNQCGFTCTQKGNLLRHIKL [46L_47V_49N_50Q_52G_53F_54T_55C_67L_, Q9UKT9]", "FALSE"],
  ["FDCNICGAQFTQKGNLLRHIKL [46F_47D_49N_50I_52G_53A_54Q_55F_67L_, Q9UKT9]", "FALSE"]
]}
